Assayed system: human OX2R (Homo sapiens, UniProt O43614)
Construct: expressed in transfected cells; host or cells: CHO; cells from GNF, San Diego
Sequence (O43614 whole entry): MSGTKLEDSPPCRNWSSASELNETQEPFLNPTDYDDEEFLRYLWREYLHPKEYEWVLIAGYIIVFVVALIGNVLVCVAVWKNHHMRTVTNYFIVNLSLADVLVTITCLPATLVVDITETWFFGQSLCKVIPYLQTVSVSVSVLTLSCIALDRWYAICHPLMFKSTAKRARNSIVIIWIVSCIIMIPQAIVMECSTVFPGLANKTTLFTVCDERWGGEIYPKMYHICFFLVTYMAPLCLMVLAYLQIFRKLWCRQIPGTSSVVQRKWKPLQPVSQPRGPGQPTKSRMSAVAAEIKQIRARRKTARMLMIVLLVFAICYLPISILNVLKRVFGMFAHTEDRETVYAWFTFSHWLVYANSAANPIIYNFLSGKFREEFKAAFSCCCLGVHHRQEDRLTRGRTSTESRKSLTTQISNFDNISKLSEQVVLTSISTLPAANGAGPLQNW
Assay procedure: FLIPR orexin A-stimulated calcium accumulation, human OX2R
Assay type: cell-based
Condition info: CHO cells, antagonist incubation 1 h
Reported Ki values for a set of compounds
Provide only the numeric value, understood in nM.

Q. Ki for Cc1ccc(-c2ncccn2)c(C(=O)N2C[C@H](COc3ccc(F)cn3)CC[C@H]2C)c1 ?
A. 0.224

Further cases:
Q. Reported Ki, compound COc1ccnc(N2CCC3(CCCN(Cc4c[nH]c5ccccc45)C3=O)CC2)n1 : ____
A. 10.7

Q. Next: CNC(=O)[C@@H](c1ccccc1)N1CCc2cc(OC)c(OC)cc2[C@@H]1CCc1ccc(C(F)(F)F)cc1
A. 1.51

Q. Lookup Cc1nc(C(=O)N2CCCC[C@H]2CNC(=O)c2cccc3occc23)c(-c2ccc(F)cc2)s1
A. 0.372
